Source of measurements: ChEMBL document CHEMBL4808195

test system: NCI-H1975; assay: Anticancer activity against human NCI-H1975 cells assessed as inhibition of cell growth at 10 uM measured by SRB method; assay type: functional
inhibition at 10 µM for assorted molecules
Dear colleague, please return just the value in %, with no unit written.

INSERT INTO assay_data (molecule, measured_result) VALUES
  ('CN(C)c1ccc(C2CC(c3ccc(-n4cncn4)cc3)=NN2C(=O)Cc2ccccc2)cc1 (stereo not drawn)', -4),
  ('CN1CCN(c2ccc(C3=NN(S(=O)(=O)C4CC4)C(c4ccc(N(C)C)cc4)C3)cc2)CC1 (stereo not drawn)', 0.2),
  ('C=C(C)C(=O)N1N=C(c2ccc(-n3ccnc3)cc2)CC1c1ccc(N(C)C)cc1 (stereo not drawn)', -3.7);

Any idea what inhibition at 10 µM was measured for CN(C)c1ccc(C2CC(c3ccc(-n4ccnc4)cc3)=NN2S(=O)(=O)c2ccc([N+](=O)[O-])cc2)cc1 (stereo not drawn) ?
53

Any idea what inhibition at 10 µM was measured for CC(=O)N1N=C(c2ccc(N3CCN(C)CC3)cc2)CC1c1ccc(N(C)C)cc1 (stereo not drawn) ?
-1.9

Any idea what inhibition at 10 µM was measured for CN(C)c1ccc(C2CC(c3ccc(-n4cncn4)cc3)=NN2C(=O)c2cc(Cl)cc(Cl)c2)cc1 (stereo not drawn) ?
8.4

Any idea what inhibition at 10 µM was measured for CN1CCN(c2ccc(C3=NNC(c4ccc(N(C)C)cc4)C3)cc2)CC1 (stereo not drawn) ?
2.4

Any idea what inhibition at 10 µM was measured for Cc1ccc(S(=O)(=O)N2N=C(c3ccc(N4CCN(C)CC4)cc3)CC2c2ccc(N(C)C)cc2)cc1 (stereo not drawn) ?
38.1

Any idea what inhibition at 10 µM was measured for CN1CCN(c2ccc(C3=NN(C(=O)/C=C/c4ccccc4)C(c4ccc(N(C)C)cc4)C3)cc2)CC1 (stereo not drawn) ?
81

Any idea what inhibition at 10 µM was measured for CN(C)c1ccc(C2CC(c3ccc(-n4cncn4)cc3)=NN2)cc1 (stereo not drawn) ?
-3.3

Any idea what inhibition at 10 µM was measured for CN(C)c1ccc(C2CC(c3ccc(-n4ccnc4)cc3)=NN2)cc1 (stereo not drawn) ?
0.1

Any idea what inhibition at 10 µM was measured for CN1CCN(c2ccc(C3=NN(S(=O)(=O)c4ccc(OC(F)(F)F)cc4)C(c4ccc(N(C)C)cc4)C3)cc2)CC1 (stereo not drawn) ?
26.5

Any idea what inhibition at 10 µM was measured for CN1CCN(c2ccc(C3=NN(S(C)(=O)=O)C(c4ccc(N(C)C)cc4)C3)cc2)CC1 (stereo not drawn) ?
-1.3

Any idea what inhibition at 10 µM was measured for CN(C)c1ccc(C2CC(c3ccc(-n4ccnc4)cc3)=NN2C(=O)c2cc(Cl)cc(Cl)c2)cc1 (stereo not drawn) ?
58.7

Any idea what inhibition at 10 µM was measured for CN(C)c1ccc(C2CC(c3ccc(-n4ccnc4)cc3)=NN2C(=O)Cc2ccccc2)cc1 (stereo not drawn) ?
-5.5

Any idea what inhibition at 10 µM was measured for CC(=O)N1N=C(c2ccc(-n3ccnc3)cc2)CC1c1ccc(N(C)C)cc1 (stereo not drawn) ?
-2.1

Any idea what inhibition at 10 µM was measured for COC(=O)CC(=O)N1N=C(c2ccc(N3CCN(C)CC3)cc2)CC1c1ccc(N(C)C)cc1 (stereo not drawn) ?
-2.2

Any idea what inhibition at 10 µM was measured for CN(C)c1ccc(C2CC(c3ccc(-n4cncn4)cc3)=NN2C(=O)c2ccc(C(F)(F)F)cc2)cc1 (stereo not drawn) ?
11.5
